Test system: RCG
Experiment: Substrate specificity of RCG (oxidation activity with NAD+)
Type: biochemical, Cellulomonas sp. strain KNK0102
Details: substrate 10 mM, 2 mM NAD+, 100 mM phosphate buffer pH 8.0, 30° C., 3 min; activity for glycerol is 100
Label Fulfilled for high-side Relative activity (at or above 60%) and Not fulfilled for low-side Relative activity (below it).

• OCCCO [1,3-propanediol] = Not fulfilled
• OCC(O)CCl (stereo not drawn) [3-chloro-1,2-propanediol] = Fulfilled
• CO [methanol] = Not fulfilled
• COCC(O)CO (stereo not drawn) [3-methoxy-1,2-propanediol] = Not fulfilled
• CSCC(O)CO (stereo not drawn) [3-methylthio-1,2-propanediol] = Fulfilled
• CC(O)C(C)O (stereo not drawn) [2,3-butanediol] = Fulfilled
• CC(O)CCCO (stereo not drawn) [1,4-pentanediol] = Not fulfilled
• CCC(O)CO (stereo not drawn) [1,2-butanediol] = Fulfilled
• OCC(O)COc1ccccc1 (stereo not drawn) [3-phenoxy-1,2-propanediol] = Not fulfilled
• CCCCC(O)CO (stereo not drawn) [1,2-hexanediol] = Not fulfilled
• CCO [ethanol] = Not fulfilled
• OCC(O)CS (stereo not drawn) [3-mercapto-1,2-propanediol] = Fulfilled
• OCC(O)CBr (stereo not drawn) [3-bromo-1,2-propanediol] = Not fulfilled
• CC(O)CCO (stereo not drawn) [1,3-butanediol] = Not fulfilled
• CC(C)O [isopropanol] = Not fulfilled
• CCCC(O)CO (stereo not drawn) [1,2-pentanediol] = Fulfilled
• CC(O)CO (stereo not drawn) [1,2-propanediol] = Fulfilled
• CCCO [propanol] = Not fulfilled
• OCC(O)CO [glycerol] = Fulfilled
• OCCC(O)CO (stereo not drawn) [1,2,4-butanetriol] = Not fulfilled
• OC(CCl)CCl [1,3-dichloro-2-propanol] = Not fulfilled
